Each entry below carries its recorded PBM binding z-score.
Tested on: PPARg:RXRa 270nM:90nM, anti-RXR (NR concentration 270 nM, RXRa partner concentration 90 nM)
Assay: PBM binding z-score (relative to random genomic background probes); higher = stronger binding; sequences stand for … in GC…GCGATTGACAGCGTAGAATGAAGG

>  <RECORD_SEQUENCE>
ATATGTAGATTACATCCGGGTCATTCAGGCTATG

>  <PBM binding z-score>
1.25

$$$$
>  <RECORD_SEQUENCE>
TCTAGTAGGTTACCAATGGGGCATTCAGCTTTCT

>  <PBM binding z-score>
2.93

$$$$
>  <RECORD_SEQUENCE>
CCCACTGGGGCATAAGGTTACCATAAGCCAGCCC

>  <PBM binding z-score>
4.26

$$$$
>  <RECORD_SEQUENCE>
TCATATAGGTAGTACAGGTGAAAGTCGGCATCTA

>  <PBM binding z-score>
2.23

$$$$
>  <RECORD_SEQUENCE>
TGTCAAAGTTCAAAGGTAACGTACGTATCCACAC

>  <PBM binding z-score>
7.29

$$$$
>  <RECORD_SEQUENCE>
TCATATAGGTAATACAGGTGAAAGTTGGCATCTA

>  <PBM binding z-score>
4.06

$$$$
>  <RECORD_SEQUENCE>
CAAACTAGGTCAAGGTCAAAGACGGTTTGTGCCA

>  <PBM binding z-score>
8.3

$$$$
>  <RECORD_SEQUENCE>
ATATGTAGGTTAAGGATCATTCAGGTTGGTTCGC

>  <PBM binding z-score>
7.41

$$$$
>  <RECORD_SEQUENCE>
CGTCCAAGTTCAATGCTAGGTCAGTGAAAGCATT

>  <PBM binding z-score>
0.79

$$$$
>  <RECORD_SEQUENCE>
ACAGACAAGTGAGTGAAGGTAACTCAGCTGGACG

>  <PBM binding z-score>
-0.0179

$$$$
>  <RECORD_SEQUENCE>
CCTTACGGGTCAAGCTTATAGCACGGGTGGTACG

>  <PBM binding z-score>
4.65

$$$$
>  <RECORD_SEQUENCE>
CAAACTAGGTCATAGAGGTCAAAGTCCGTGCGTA

>  <PBM binding z-score>
7.74

$$$$
>  <RECORD_SEQUENCE>
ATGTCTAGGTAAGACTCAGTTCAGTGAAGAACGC

>  <PBM binding z-score>
0.15

$$$$
>  <RECORD_SEQUENCE>
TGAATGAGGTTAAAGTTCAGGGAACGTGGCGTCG

>  <PBM binding z-score>
8.25

$$$$
>  <RECORD_SEQUENCE>
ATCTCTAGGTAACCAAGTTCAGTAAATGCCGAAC

>  <PBM binding z-score>
1.1

$$$$
>  <RECORD_SEQUENCE>
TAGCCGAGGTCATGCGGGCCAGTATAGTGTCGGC

>  <PBM binding z-score>
6.15

$$$$
>  <RECORD_SEQUENCE>
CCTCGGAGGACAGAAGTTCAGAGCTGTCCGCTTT

>  <PBM binding z-score>
-0.616

$$$$
>  <RECORD_SEQUENCE>
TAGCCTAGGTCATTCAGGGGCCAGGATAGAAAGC

>  <PBM binding z-score>
2.42

$$$$
>  <RECORD_SEQUENCE>
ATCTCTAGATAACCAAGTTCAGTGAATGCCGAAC

>  <PBM binding z-score>
-0.141

$$$$
>  <RECORD_SEQUENCE>
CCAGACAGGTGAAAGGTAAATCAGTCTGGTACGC

>  <PBM binding z-score>
5.7

$$$$
>  <RECORD_SEQUENCE>
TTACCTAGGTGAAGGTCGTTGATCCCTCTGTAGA

>  <PBM binding z-score>
2.36

$$$$
>  <RECORD_SEQUENCE>
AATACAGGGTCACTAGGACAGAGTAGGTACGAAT

>  <PBM binding z-score>
6.39

$$$$
>  <RECORD_SEQUENCE>
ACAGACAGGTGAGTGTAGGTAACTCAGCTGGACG

>  <PBM binding z-score>
0.248

$$$$
>  <RECORD_SEQUENCE>
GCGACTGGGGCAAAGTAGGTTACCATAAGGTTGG

>  <PBM binding z-score>
3.18

$$$$
>  <RECORD_SEQUENCE>
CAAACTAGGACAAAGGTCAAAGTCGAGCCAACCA

>  <PBM binding z-score>
10.6

$$$$
